- target_system: human N-type Ca channel (Homo sapiens, UniProt Q00975)
- Sequence (Q00975 whole entry): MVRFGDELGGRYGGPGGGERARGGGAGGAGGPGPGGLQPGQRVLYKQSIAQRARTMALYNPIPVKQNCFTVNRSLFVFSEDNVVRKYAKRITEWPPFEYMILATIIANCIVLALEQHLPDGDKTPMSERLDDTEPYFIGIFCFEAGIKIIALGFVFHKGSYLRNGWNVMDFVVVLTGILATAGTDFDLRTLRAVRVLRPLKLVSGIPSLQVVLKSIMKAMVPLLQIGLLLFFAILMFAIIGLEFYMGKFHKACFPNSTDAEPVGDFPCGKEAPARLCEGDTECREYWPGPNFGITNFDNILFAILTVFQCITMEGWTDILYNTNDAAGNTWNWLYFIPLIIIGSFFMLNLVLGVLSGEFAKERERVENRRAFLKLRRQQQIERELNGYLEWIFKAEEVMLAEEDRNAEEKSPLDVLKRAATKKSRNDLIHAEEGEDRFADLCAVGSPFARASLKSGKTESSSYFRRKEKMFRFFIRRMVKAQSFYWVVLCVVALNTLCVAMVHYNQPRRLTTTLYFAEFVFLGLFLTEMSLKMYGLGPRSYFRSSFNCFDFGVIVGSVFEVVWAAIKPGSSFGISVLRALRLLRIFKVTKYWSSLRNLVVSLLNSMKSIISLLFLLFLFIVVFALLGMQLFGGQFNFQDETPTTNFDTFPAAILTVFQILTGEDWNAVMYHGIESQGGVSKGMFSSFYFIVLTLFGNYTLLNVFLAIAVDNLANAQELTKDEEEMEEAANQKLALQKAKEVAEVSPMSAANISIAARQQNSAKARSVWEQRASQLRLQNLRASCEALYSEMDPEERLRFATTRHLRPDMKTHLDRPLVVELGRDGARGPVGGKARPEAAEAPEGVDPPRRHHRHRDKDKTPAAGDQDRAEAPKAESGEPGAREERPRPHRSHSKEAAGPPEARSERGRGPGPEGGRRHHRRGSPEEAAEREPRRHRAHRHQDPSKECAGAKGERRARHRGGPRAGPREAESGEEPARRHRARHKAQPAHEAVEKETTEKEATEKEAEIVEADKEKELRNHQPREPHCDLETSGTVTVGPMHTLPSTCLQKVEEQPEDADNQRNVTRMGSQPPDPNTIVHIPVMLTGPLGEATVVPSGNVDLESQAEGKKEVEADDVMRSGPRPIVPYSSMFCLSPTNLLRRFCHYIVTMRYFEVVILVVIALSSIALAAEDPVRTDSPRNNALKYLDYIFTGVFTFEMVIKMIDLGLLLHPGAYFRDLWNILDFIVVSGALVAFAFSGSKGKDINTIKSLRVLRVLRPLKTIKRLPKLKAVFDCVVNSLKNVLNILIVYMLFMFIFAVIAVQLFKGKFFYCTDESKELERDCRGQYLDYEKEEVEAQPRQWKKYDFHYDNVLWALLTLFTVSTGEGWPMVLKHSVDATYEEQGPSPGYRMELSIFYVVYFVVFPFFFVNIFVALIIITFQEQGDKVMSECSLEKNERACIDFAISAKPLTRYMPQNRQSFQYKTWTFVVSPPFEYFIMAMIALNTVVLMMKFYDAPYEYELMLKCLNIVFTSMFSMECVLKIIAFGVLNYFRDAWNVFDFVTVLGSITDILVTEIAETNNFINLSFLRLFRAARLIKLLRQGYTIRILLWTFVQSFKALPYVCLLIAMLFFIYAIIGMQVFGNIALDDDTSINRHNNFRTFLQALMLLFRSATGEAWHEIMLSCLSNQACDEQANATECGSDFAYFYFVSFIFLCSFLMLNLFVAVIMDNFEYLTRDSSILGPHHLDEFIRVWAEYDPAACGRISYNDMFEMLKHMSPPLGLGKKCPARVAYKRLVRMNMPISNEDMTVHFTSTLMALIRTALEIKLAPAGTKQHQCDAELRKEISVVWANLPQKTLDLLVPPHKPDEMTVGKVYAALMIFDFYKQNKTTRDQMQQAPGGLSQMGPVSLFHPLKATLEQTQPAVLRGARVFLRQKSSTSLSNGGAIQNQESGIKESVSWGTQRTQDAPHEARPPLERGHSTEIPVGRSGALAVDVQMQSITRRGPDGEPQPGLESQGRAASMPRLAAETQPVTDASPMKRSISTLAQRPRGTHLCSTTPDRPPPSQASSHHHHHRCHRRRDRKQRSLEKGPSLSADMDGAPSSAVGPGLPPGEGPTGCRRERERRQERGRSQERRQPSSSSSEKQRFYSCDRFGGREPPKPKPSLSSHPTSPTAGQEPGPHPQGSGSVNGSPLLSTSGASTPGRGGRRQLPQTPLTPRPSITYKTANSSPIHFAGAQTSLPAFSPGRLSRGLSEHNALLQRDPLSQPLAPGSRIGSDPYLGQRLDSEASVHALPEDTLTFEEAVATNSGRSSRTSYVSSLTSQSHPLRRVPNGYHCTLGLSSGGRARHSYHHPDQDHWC
- Sequence (P54284 whole entry partner): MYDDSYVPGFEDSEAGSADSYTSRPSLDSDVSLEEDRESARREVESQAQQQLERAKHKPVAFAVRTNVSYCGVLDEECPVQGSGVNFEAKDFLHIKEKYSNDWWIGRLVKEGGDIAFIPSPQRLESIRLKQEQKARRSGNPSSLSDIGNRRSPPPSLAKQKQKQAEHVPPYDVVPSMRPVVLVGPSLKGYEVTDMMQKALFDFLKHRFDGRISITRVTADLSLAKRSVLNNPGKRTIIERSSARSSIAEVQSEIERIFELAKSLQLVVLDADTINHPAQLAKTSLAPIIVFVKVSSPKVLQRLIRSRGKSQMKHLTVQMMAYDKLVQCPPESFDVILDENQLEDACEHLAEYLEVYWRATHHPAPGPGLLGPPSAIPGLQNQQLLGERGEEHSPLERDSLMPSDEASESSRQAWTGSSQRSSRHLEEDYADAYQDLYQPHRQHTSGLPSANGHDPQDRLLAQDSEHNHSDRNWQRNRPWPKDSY
- Sequence (P54289 25-956 partner limits assumed): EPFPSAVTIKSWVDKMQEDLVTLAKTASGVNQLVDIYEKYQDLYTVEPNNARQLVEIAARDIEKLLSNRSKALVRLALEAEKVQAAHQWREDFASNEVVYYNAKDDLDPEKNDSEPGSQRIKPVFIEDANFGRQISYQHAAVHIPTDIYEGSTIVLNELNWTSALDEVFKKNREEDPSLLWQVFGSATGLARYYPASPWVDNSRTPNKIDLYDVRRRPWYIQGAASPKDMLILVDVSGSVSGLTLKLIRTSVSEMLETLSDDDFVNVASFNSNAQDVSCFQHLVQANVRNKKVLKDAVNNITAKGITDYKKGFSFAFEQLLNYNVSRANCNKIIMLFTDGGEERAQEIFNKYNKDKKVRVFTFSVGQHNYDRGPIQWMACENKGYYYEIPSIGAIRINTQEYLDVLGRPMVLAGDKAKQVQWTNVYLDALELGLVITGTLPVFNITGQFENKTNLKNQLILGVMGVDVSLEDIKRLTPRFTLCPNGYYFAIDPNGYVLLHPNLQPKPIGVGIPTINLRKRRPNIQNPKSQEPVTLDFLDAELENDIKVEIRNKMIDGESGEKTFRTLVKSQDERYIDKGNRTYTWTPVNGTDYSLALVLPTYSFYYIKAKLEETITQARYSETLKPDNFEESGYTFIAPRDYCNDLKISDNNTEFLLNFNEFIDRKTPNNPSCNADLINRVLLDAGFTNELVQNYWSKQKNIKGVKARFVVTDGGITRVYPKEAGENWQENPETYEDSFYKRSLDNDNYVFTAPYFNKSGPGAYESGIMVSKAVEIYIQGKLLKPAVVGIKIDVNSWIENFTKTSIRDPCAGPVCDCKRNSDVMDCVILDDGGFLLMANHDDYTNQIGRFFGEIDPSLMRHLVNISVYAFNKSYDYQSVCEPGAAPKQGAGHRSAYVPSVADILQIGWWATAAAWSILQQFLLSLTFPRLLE
- Sequence (P54289 957-1103 partner limits assumed): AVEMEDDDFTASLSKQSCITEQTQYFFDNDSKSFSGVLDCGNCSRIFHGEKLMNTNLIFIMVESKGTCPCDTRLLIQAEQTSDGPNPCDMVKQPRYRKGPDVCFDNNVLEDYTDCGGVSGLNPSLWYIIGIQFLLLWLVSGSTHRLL
- protocol_description: Electrophysiological response, QPatch (depolarization -80 mV to +20 mV)
- assay_conditions: N Type IC50 Data Qpatch Pulse=1, Pulse=1; concentration range 0.3-10 µM
reported_endpoint: IC50 (µM)

| molecule | output_unit | numeric_readout |
| --- | --- | --- |
| COc1ccccc1-c1nc(C2CC(C)(C)OC(C)(C)C2)cn1-c1ccc(F)c(F)c1 [Compound 42] | µM | 2.6 |
| COc1ccccc1-c1nc(C2(O)CC(C)(C)OC(C)(C)C2)cn1-c1ccc(C#N)c(F)c1 [Compound 118] | µM | 8.1 |
| COc1ccc(-n2cc(C3CC(C)(C)OC(C)(C)C3)nc2-c2ccccc2OC)cc1 [Compound 7] | µM | 1.17 |
| COc1ncccc1-c1nc(C2(O)CC(C)(C)OC(C)(C)C2)cn1-c1ccc(Cl)cc1 [Compound 105] | µM | 8.3 |
| COc1ccncc1-c1nc(C2(O)CC(C)(C)OC(C)(C)C2)cn1-c1ccc(Cl)cc1 [Compound 103] | µM | 4.3 |
| CCOc1ccc(-n2cc(C3CC(C)(C)OC(C)(C)C3)nc2-c2cccnc2OC)cn1 [Compound 75] | µM | 9.8 |
| COc1ccccc1-c1nc(C2CC(C)(C)OC(C)(C)C2)cn1-c1ccc(C)nc1 [Compound 5] | µM | 5.9 |
| COc1ccccc1-c1nc(C2(O)CC(C)(C)OC(C)(C)C2)cn1-c1ccc(Cl)c(F)c1 [Compound 112] | µM | 2.5 |

1. COc1ccccc1-c1nc(C2CC(C)(C)OC(C)(C)C2)cn1S(=O)(=O)c1ccc(F)cc1 [Compound 98]
2. COc1ccccc1-c1nc(C2(O)CC(C)(C)OC(C)(C)C2)cn1-c1ccc(C(F)(F)F)nc1 [Compound 109]
Task: Just curious, which one has the larger IC50 reading, 1 or 2 ? To answer, give the label that identifies your chosen option.
Result: 1

A. COc1ncccc1-c1nc(C2CC(C)(C)OC(C)(C)C2)cn1-c1ccc(F)cc1 [Compound 10]
B. COc1ccccc1-c1nc(C2CC(C)(C)OC(C)(C)C2)cn1-c1ccc(F)c(Cl)c1 [Compound 45]
Task: Which value of IC50 is smaller, the one for A or the one for B ? To answer, give the label that identifies your chosen option.
Result: B
(B: 2.2 µM, A: 5.92 µM)

a. COc1ccccc1-c1nc(C2CC(C)(C)OC(C)(C)C2)cn1-c1ccc(C(F)(F)F)nc1 [Compound 53]
b. COc1ncccc1-c1nc(C2(O)CC(C)(C)OC(C)(C)C2)cn1-c1ccc(Cl)c(F)c1 [Compound 113]
Task: Which value of IC50 is smaller, the one for a or the one for b ? To answer, give the label that identifies your chosen option.
Result: b
(b: 4.4 µM, a: 6.5 µM)

====

- target_system: human N-type Ca channel (Homo sapiens, UniProt Q00975)
- protocol_description: Calcium influx assay (FDSS), KCl depolarization, Fluo8 dye
- Assay type: cell-based
- Parameters: host or cells: HEK 293
- assay_conditions: HEK 293 cells expressing human N-type Ca channel; 100 mM KCl; read-out: N Type IC50 Data FDSS
pIC50: −log10 of the molar value.
reported_endpoint: pIC50

| compound | pIC50 |
| --- | --- |
| COc1ccccc1-c1nc(C2=CC(C)(C)OC(C)(C)C2)cn1-c1ccc(Cl)cc1 [Compound 124] | 6.99 |
| CC1(C)CC(c2cn(-c3ccc(C(F)(F)F)nc3)c(CC3CC3)n2)CC(C)(C)O1 [Compound 59] | 5.36 |
| COc1cnccc1-c1nc(C2CC(C)(C)OC(C)(C)C2)cn1-c1ccc(Cl)cc1 [Compound 66] | 7.31 |

1. COc1cnccc1-c1nc(C2CC(C)(C)OC(C)(C)C2)cn1-c1ccc(F)c(F)c1 [Compound 33]
2. COc1ccccc1-c1nc(C2CC(C)(C)OC(C)(C)C2)cn1-c1ccc(F)c(F)c1 [Compound 42]
3. COc1ccccc1-c1nc(C2CC(C)(C)OC(C)(C)C2)cn1Cc1ccc(C#N)cc1 [Compound 99]
4. COc1ccncc1-c1nc(C2CC(C)(C)OC(C)(C)C2)cn1-c1ccc(F)c(Cl)c1 [Compound 20]
Task: Rank the 4 compounds: largest pIC50 first, smallest last. Put the labels in the order asked and list them.
Result: 2, 1, 4, 3

I. COc1ccccc1-c1nc(C2CC(C)(C)OC(C)(C)C2)cn1-c1ccc(F)c(Cl)c1 [Compound 45]
II. COc1ncccc1-c1nc(C2(O)CC(C)(C)OC(C)(C)C2)cn1-c1ccc(Cl)cc1 [Compound 105]
III. COc1ccccc1-c1nc(C2CC(C)(C)OC(C)(C)C2)cn1Cc1cccc(C#N)c1 [Compound 101]
IV. CC1(C)CC(c2cn(-c3ccc(C#N)cc3)c(C3CC3)n2)CC(C)(C)O1 [Compound 57]
Task: Order the records, beginning with the lowest pIC50 and ending with the highest. Put the labels in the order asked and list them.
Result: IV, III, II, I
(IV: 5.00, III: 5.45, II: 6.52, I: 6.83)

1. COc1ncccc1-c1nc(C2CC(C)(C)OC(C)(C)C2)cn1-c1ccc(F)c(C#N)c1 [Compound 79]
2. CC1(C)CC(c2cn(-c3ccc(C#N)cc3)c(CC3CC3)n2)CC(C)(C)O1 [Compound 58]
Task: Just curious, which one has the larger pIC50 reading, 1 or 2 ? To answer, give the label that identifies your chosen option.
Result: 1

I. COc1cnccc1-c1nc(C2CC(C)(C)OC(C)(C)C2)cn1-c1ccc(F)c(Cl)c1 [Compound 18]
II. COc1ccc(-n2cc(C3CC(C)(C)OC(C)(C)C3)nc2-c2ccccc2OC)cc1C#N [Compound 37]
Task: Just curious, which one has the larger pIC50 reading, I or II ? To answer, give the label that identifies your chosen option.
Result: I
(I: 6.97, II: 6.37)
